# assay_explanation: Effect of additives on MF solubility in 0.2 M Captisol solution
# Format: physicochemical
# recorded_conditions: aqueous with cosolvent or surfactant or cyclodextrin, 0.2 M Captisol + 0.02% w/v Benzalkonium Chloride
property_name: solubility (µg/mL)
Give just the number in µg/mL; leave the unit off.

Request the reported solubility associated with C[C@@H]1C[C@H]2[C@@H]3CCC4=CC(=O)C=C[C@]4(C)[C@@]3(Cl)[C@@H](O)C[C@]2(C)[C@@]1(OC(=O)c1ccco1)C(=O)CCl [MF, mometasone furoate]
243

---

# assay_explanation: MF solubility in cyclodextrin solutions
# Format: physicochemical
# recorded_conditions: Captisol (SBE beta-CD) 0.1M; 3 mM citrate buffer pH 4.5
property_name: Concentration of MF in solutions with cyclodextrins

Request the reported Concentration of MF in solutions with cyclodextrins associated with C[C@@H]1C[C@H]2[C@@H]3CCC4=CC(=O)C=C[C@]4(C)[C@@]3(Cl)[C@@H](O)C[C@]2(C)[C@@]1(OC(=O)c1ccco1)C(=O)CCl [MF, mometasone furoate]
152 µg/mL

---

# assay_explanation: Micellar solubility determination of MF in 10% surfactant solutions in water
# Type: physicochemical
# recorded_conditions: 10% w/w excipient solution in water, aqueous with cosolvent or surfactant or cyclodextrin, thermodynamic from solid, solutions with 10% polyoxamers
property_name: solubility

Request the reported solubility associated with C[C@@H]1C[C@H]2[C@@H]3CCC4=CC(=O)C=C[C@]4(C)[C@@]3(Cl)[C@@H](O)C[C@]2(C)[C@@]1(OC(=O)c1ccco1)C(=O)CCl [MF, mometasone furoate]
< 30 µg/mL

---

# assay_explanation: MF solubility in cyclodextrin solutions
# Type: physicochemical
# recorded_conditions: SBE(6.1) gamma-CD 0.05M; 3 mM citrate buffer pH 4.5
property_name: Concentration of MF in solutions with cyclodextrins (µg/mL)
Give just the number in µg/mL; leave the unit off.

Request the reported Concentration of MF in solutions with cyclodextrins associated with C[C@@H]1C[C@H]2[C@@H]3CCC4=CC(=O)C=C[C@]4(C)[C@@]3(Cl)[C@@H](O)C[C@]2(C)[C@@]1(OC(=O)c1ccco1)C(=O)CCl [MF, mometasone furoate]
262

---

# assay_explanation: MF solubility in cyclodextrin solutions
# Type: physicochemical
# recorded_conditions: SBE(6.1) gamma-CD 0.1M; 3 mM citrate buffer pH 4.5
property_name: Concentration of MF in solutions with cyclodextrins (µg/mL)
Give just the number in µg/mL; leave the unit off.

Request the reported Concentration of MF in solutions with cyclodextrins associated with C[C@@H]1C[C@H]2[C@@H]3CCC4=CC(=O)C=C[C@]4(C)[C@@]3(Cl)[C@@H](O)C[C@]2(C)[C@@]1(OC(=O)c1ccco1)C(=O)CCl [MF, mometasone furoate]
626

---

# assay_explanation: MF solubility in cyclodextrin solutions
# Assay type: physicochemical
# recorded_conditions: Captisol (SBE beta-CD) 0.2M; 3 mM citrate buffer pH 4.5
property_name: Concentration of MF in solutions with cyclodextrins (µg/mL)
Give just the number in µg/mL; leave the unit off.

Request the reported Concentration of MF in solutions with cyclodextrins associated with C[C@@H]1C[C@H]2[C@@H]3CCC4=CC(=O)C=C[C@]4(C)[C@@]3(Cl)[C@@H](O)C[C@]2(C)[C@@]1(OC(=O)c1ccco1)C(=O)CCl [MF, mometasone furoate]
261

---

# assay_explanation: Microemulsion equilibrium solubility determination of mometasone furoate
# Assay type: physicochemical
# recorded_conditions: SOLUTOL HS-15-based microemulsion, aqueous with cosolvent or surfactant or cyclodextrin, thermodynamic from solid, microemulsion: ethyl laurate 5% w/w, polyethylene glycol 660-12 hydroxystearate 20% w/w; read-out: MF Solubility
property_name: solubility at 72 h (mg/mL)
Give just the number in mg/mL; leave the unit off.

Request the reported solubility at 72 h associated with C[C@@H]1C[C@H]2[C@@H]3CCC4=CC(=O)C=C[C@]4(C)[C@@]3(Cl)[C@@H](O)C[C@]2(C)[C@@]1(OC(=O)c1ccco1)C(=O)CCl [MF, mometasone furoate]
0.54

---

# assay_explanation: Microemulsion equilibrium solubility determination of mometasone furoate
# Assay type: physicochemical
# recorded_conditions: SOLUTOL HS-15-based microemulsion, aqueous with cosolvent or surfactant or cyclodextrin, thermodynamic from solid, microemulsion Example 7: oleic acid 2% w/w, SOLUTOL HS 15 20% w/w; read-out: Solubilized MF
# Description: The equilibrium solubility of mometasone furoate is determined in SOLUTOL® HS-15-based microemulsion composition composed of 20% of SOLUTOL® HS-15 with varying amounts of different oils (FIG. 2, Table 2). An excess amount of the drug is added in the solutions after water had been added. The vials is shaken over a 72 hour period. The solutions is centrifuged and filtered at various time intervals prior to analysis of the samples by HPLC. The drug solubility ranged from 300 mcg/ml to 600 mcg/g. […]
property_name: solubility at 72 h

Request the reported solubility at 72 h associated with C[C@@H]1C[C@H]2[C@@H]3CCC4=CC(=O)C=C[C@]4(C)[C@@]3(Cl)[C@@H](O)C[C@]2(C)[C@@]1(OC(=O)c1ccco1)C(=O)CCl [MF, mometasone furoate]
323 µg/mL
